t½ overview
Test system: HMM-mfMSR1 (monkey MSR1 extracellular domain)
Sequence (as listed by the source): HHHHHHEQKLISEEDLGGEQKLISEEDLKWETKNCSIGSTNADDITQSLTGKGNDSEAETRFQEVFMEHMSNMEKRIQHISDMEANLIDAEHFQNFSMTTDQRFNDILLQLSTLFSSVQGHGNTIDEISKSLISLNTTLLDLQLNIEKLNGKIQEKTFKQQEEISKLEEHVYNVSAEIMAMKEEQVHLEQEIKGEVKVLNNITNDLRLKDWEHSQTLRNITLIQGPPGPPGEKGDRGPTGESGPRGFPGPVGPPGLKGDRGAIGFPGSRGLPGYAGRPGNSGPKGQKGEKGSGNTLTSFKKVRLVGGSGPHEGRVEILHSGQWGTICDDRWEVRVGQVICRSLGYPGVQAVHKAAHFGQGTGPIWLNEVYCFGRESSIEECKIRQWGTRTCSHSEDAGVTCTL
Experiment: Biacore surface plasmon resonance binding kinetics of anti-MSR1 mAbs, antibody-capture format
Conditions: 25° C.; analyte HMM-mfMSR1; dissociative half-life; NB = no binding observed

molecule	t½ [h]
H1H21231N: "anti-MSR1 antibodies ... (21227N, 21231N, 21234N) were produced with the original human Fcγ portion"; "H1H" = human IgG1 Fc (antibody, V domains shown, human IgG1 Fc, "anti-MSR1 antibodies ; (21227N, 21231N, 21234N) were produced with the original human Fcγ portion"; "H1H" = human IgG1 Fc) VH: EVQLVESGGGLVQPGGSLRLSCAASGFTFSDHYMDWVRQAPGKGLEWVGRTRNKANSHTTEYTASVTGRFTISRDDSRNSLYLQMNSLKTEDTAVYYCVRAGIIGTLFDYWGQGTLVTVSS VL: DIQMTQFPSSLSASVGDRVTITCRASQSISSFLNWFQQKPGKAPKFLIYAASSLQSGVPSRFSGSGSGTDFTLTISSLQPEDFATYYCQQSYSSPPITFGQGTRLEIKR	3.02
H1H21227N: "anti-MSR1 antibodies ... (21227N, 21231N, 21234N) were produced with the original human Fcγ portion"; "H1H" = human IgG1 Fc (antibody, V domains shown, human IgG1 Fc, "anti-MSR1 antibodies ; (21227N, 21231N, 21234N) were produced with the original human Fcγ portion"; "H1H" = human IgG1 Fc) VH: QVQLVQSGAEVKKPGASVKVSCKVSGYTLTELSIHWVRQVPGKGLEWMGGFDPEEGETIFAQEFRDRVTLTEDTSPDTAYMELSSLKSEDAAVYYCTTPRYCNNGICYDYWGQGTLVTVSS VL: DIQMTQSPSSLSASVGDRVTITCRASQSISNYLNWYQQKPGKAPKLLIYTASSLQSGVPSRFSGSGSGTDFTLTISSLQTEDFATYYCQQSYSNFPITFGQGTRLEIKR	4.37
H1H21227N-N297Q: "modified versions of 21227N (H1H21227N-N297Q and H1H21227N-N297D)"; anti-MSR1 antibody "with a N297Q single point mutation" (antibody, V domains shown) VH: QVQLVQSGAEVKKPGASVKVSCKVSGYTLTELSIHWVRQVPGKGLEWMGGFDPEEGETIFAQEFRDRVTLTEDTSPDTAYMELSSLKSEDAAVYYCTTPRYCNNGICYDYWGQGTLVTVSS VL: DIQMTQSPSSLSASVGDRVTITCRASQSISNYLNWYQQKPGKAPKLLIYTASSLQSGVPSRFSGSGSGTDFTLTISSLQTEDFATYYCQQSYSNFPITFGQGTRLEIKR	2.57
